TARGET_OF_ASSAY: FGF14:Nav1.6 C-tail complex (Homo sapiens, UniProt Q92915+Q9UQD0)
Construct: polymerase chain reaction (PCR) amplification of the FGF14 open reading frame (nt 1–855); C-terminal fragment of Nav1.6 (amino acids 1763–1976) fused with CD4ΔC-tail (amino acids 1–395); expressed in transfected cells
Sequence (Q92915 1-252 isoform Q92915-2): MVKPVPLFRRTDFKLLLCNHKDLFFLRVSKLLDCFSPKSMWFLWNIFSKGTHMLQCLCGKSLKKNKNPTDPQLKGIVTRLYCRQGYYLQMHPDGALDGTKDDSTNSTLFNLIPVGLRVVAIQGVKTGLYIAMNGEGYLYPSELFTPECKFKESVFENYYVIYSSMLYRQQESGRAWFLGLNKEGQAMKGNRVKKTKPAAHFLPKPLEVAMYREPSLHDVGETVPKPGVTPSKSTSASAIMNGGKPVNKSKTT
Sequence (Q9UQD0 1763-1976 limits assumed): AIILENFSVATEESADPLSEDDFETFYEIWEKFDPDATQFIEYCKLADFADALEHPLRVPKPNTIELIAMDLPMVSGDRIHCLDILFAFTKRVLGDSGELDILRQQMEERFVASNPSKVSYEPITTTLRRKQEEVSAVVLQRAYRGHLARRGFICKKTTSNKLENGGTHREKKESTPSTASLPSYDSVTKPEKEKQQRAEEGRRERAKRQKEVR
ASSAY_METHOD_TEXT: Split-luciferase complementation assay (LCA) in Clone V double stable HEK293 cells
Format: cell-based
MEASUREMENT_CONDITIONS: CC_NCI screening; LCA, biological replicate Set 1; normalized to on-plate 0.3% DMSO controls
METRIC_NAME: Split Luciferase Assay Z-score Set 1
Quick one: just the number, no unit, thanks!

Sample records with Split Luciferase Assay Z-score Set 1:
COc1nc(N)nc2c1ncn2[C@@H]1O[C@H](CO)[C@@H](O)[C@@H]1O [Nelarabine] :: 2.40
O=C1CCC(N2C(=O)c3ccccc3C2=O)C(=O)N1 (stereo not shown) [Thalidomide] :: 2.31
COC(=O)C[C@](O)(CCCC(C)(C)O)C(=O)O[C@@H]1C(OC)=C[C@]23CCCN2CCc2cc4c(cc2[C@H]13)OCO4 [Omacetaxine mepesuccinate] :: -6.39
Cn1c(=O)n(-c2ccc(C(C)(C)C#N)cc2)c2c3cc(-c4cnc5ccccc5c4)ccc3ncc21 [BEZ 235] :: -0.68
NCCCNCCSP(=O)(O)O [Amifostine] :: 0.73

Form: item O=c1cc(-c2cccc3c2Sc2ccccc2S3)oc(N2CCOCC2)c1 [KU-55933] ; test system FGF14:Nav1.6 C-tail complex (Homo sapiens, UniProt Q92915+Q9UQD0); Split Luciferase Assay Z-score Set 1: -2.43

Form: item COc1ccc2c(c1)CC[C@@H]1[C@@H]2CC[C@]2(C)[C@@H](NCCCCCCN3C(=O)C=CC3=O)CC[C@@H]12 [U 73122] ; test system FGF14:Nav1.6 C-tail complex (Homo sapiens, UniProt Q92915+Q9UQD0); Split Luciferase Assay Z-score Set 1: 2.31

Form: item CC(C)(C#N)c1cc(Cn2cncn2)cc(C(C)(C)C#N)c1 [Anastrozole] ; test system FGF14:Nav1.6 C-tail complex (Homo sapiens, UniProt Q92915+Q9UQD0); Split Luciferase Assay Z-score Set 1: -0.85

Form: item CC(C)(C)c1nc(-c2cccc(NS(=O)(=O)c3c(F)cccc3F)c2F)c(-c2ccnc(N)n2)s1.CS(=O)(=O)O [Dabrafenib mesylate] ; test system FGF14:Nav1.6 C-tail complex (Homo sapiens, UniProt Q92915+Q9UQD0); Split Luciferase Assay Z-score Set 1: 2.14

Form: item O=C(CCCCCCC(=O)Nc1ccccc1)NO [Vorinostat] ; test system FGF14:Nav1.6 C-tail complex (Homo sapiens, UniProt Q92915+Q9UQD0); Split Luciferase Assay Z-score Set 1: -0.94

Form: item CNC(=O)c1ccc(N2C(=S)N(c3ccc(C#N)c(C(F)(F)F)c3)C(=O)C2(C)C)cc1F [Enzalutamide] ; test system FGF14:Nav1.6 C-tail complex (Homo sapiens, UniProt Q92915+Q9UQD0); Split Luciferase Assay Z-score Set 1: -0.41

Form: item C=CC[C@@H]1/C=C(\C)C[C@H](C)C[C@H](OC)[C@H]2O[C@@](O)(C(=O)C(=O)N3CCCC[C@H]3C(=O)O[C@H](/C(C)=C/[C@@H]3CC[C@@H](O)[C@H](OC)C3)[C@H](C)[C@@H](O)CC1=O)[C@H](C)C[C@@H]2OC [FK-506] ; test system FGF14:Nav1.6 C-tail complex (Homo sapiens, UniProt Q92915+Q9UQD0); Split Luciferase Assay Z-score Set 1: -1.55

Form: item C=CC(=O)Nc1cc2c(Nc3ccc(F)c(Cl)c3)ncnc2cc1OCCCN1CCOCC1 [CANERTINIB] ; test system FGF14:Nav1.6 C-tail complex (Homo sapiens, UniProt Q92915+Q9UQD0); Split Luciferase Assay Z-score Set 1: -5.77

Form: item OC[C@H]1O[C@@H](n2cnc3c2NC=NC[C@H]3O)C[C@@H]1O [Pentostatin] ; test system FGF14:Nav1.6 C-tail complex (Homo sapiens, UniProt Q92915+Q9UQD0); Split Luciferase Assay Z-score Set 1: 2.75

Form: item O=[As]O[As]=O (stereo not shown) [Arsenic trioxide] ; test system FGF14:Nav1.6 C-tail complex (Homo sapiens, UniProt Q92915+Q9UQD0); Split Luciferase Assay Z-score Set 1: -6.39

Form: item CC(/C=C/C(=O)NO)=C\[C@@H](C)C(=O)c1ccc(N(C)C)cc1 [TRICHOSTATIN A] ; test system FGF14:Nav1.6 C-tail complex (Homo sapiens, UniProt Q92915+Q9UQD0); Split Luciferase Assay Z-score Set 1: 3.81
